- procedure-summary: inhibition of coupled GDH and TPI enzymes – biochemical, fluorescence, high throughput, artefact control for M. tuberculosis FBA inhibitor project (AID 652141)
- applied-conditions: GDH-TPI coupled enzyme counterscreen, at 1 µM
Out of some 5,600 compounds screened, about 4,500 (80%) were called active. No stated cut-off is given here; in the data, active means inhibition above about 10%; inactive means the rest. The set was probably picked from earlier hits. Only a sample is shown.
Classes used: Yes for active, No for inactive

COc1cc2nc(N3CCN(C(=O)[C@@H]4CCCO4)CC3)nc(N)c2cc1OC = Yes
COc1cc(/C=C/c2ccc(/C=C/c3cc(OC)c(OC)c(OC)c3)cc2)cc(OC)c1OC = Yes
COc1ccc2c(c1)cc1n2CCN=C1NN = Yes
CC(C)c1nc(N2CCOCC2)c(C#N)c2c1COC(C)(C)C2 = Yes
Cc1cc(C)c(-c2c(O)c3ccccc3n(C)c2=O)c(C)c1 = Yes
CCN1CCc2c(C#N)c(NCc3ccccc3)nc(NCCO)c2C1 = Yes
O=C(NCCCN1CCOCC1)c1cnn2c(-c3ccccc3)cc(-c3ccccc3)nc12 = Yes
COC(=O)c1noc(C)c1-c1ccnn1C(=O)c1ccc(Cl)cc1 = Yes
Oc1ccc(Br)cc1C=Nc1ccc2[nH]ncc2c1 = Yes
Cc1cc(C)cc(NC(=O)CSc2ccccc2)c1 = Yes
CN(C(=O)COc1ccccc1)c1nnc(-c2ccncc2)s1 = Yes
Cc1cc(C)c2c(n1)sc1c(=O)n(-c3ccccc3)c(=O)[nH]c12 = Yes
Cc1ccc(-c2nc3ccccc3c(=O)n2-c2ccc(Br)cn2)cc1 = Yes
CC1(C)Cc2c(C#N)c(SCc3nc4ccccc4[nH]3)nc(N3CCOCC3)c2CO1 = No
CCCc1cc(=O)oc2c(C)c(OCC(=O)N3CCC(C(=O)O)CC3)ccc12 = No
O=C1C(=O)N(c2ccccc2)C(c2ccccc2)C1c1ccccc1 (stereo not given) = No
CCOC(=O)NN1C(=O)c2ccccc2NC1c1cccc(O)c1 (stereo not given) = Yes
CCCc1nc2oc3c(=O)[nH]cnc3c2c2c1COC(C)(C)C2 = Yes
CCCCN(CCCC)CC(O)Cn1c2ccccc2c(=O)c2ccccc21 (stereo not given) = Yes
N#Cc1c(N)n(CCOC(=O)c2ccc(Cl)cc2)c2nc3ccccc3nc12 = Yes
CN(C(=O)c1ccccn1)c1nnc(-c2ccccn2)s1 = Yes
Cn1nc(-c2ccc(Cl)cc2)c2cc(C(=O)NCc3ccco3)sc21 = Yes
COc1cc(OC)cc(C(=O)Nc2ccc(-c3nc4ccccc4o3)c(O)c2)c1 = Yes
COCc1cc(=O)oc2cc(NS(=O)(=O)c3ccc(C)cc3)ccc12 = Yes
Cc1nc2ccc(NC(=O)N3CCC(c4ccccc4)C3)cc2nc1C (stereo not given) = Yes
O=C(NCc1cccc(Cl)c1)C1=CC=CN2CCS(=O)(=O)N=C12 = No
Cc1ccn2c(c1)nc(=O)c1cc(S(=O)(=O)N3CCC(C)CC3)ccc12 = No
CCOc1ccc2nc(NCCNS(=O)(=O)c3ccccc3)c(C#N)cc2c1 = Yes
CN(C)CCCn1c(N)c(C#N)c2nc(C#N)c(C#N)nc21 = Yes
CC(OC(=O)c1ccccc1NCCO)C(=O)Nc1ccnn1C(C)C (stereo not given) = Yes

###

- procedure-summary: inhibition of coupled GDH and TPI enzymes – biochemical, fluorescence, high throughput, artefact control for M. tuberculosis FBA inhibitor project (AID 652141)
- applied-conditions: GDH-TPI coupled enzyme counterscreen, at 1 µM
About 4,500 (80%) of roughly 5,600 compounds were called active. No stated cut-off is given here; in the data, active means inhibition above about 10%; inactive means the rest. The set was probably picked from earlier hits. These entries were drawn from the full list.
Outcomes: active, inactive

CC(=O)c1sc2nc(SCC(=O)N3CCCCC3)[nH]c(=O)c2c1C = active
Oc1ccccc1C1=NN(c2ccccc2)C(c2ccccc2)C1 (stereo unspecified) = active
COc1ccc2c(c1OC)C(=O)N(c1ncn[nH]1)C2 = active
O=C(CN1C(=O)c2cccc3cccc(c23)C1=O)N1CCCCC1 = active
Cn1c(-c2ccco2)nc2cc3ccccc3cc21 = active
CCc1c(C)nc2cc(C)[nH]n2c1=O = active
Fc1ccc(N2N=C(c3cccs3)CC2c2ccco2)c(F)c1 (stereo unspecified) = inactive
COc1ccccc1N1N=C(c2cccs2)CC1c1ccccc1 (stereo unspecified) = active
Cc1cc(OCC(=O)NCC(O)c2ccccc2)c2c(C)c(C)c(=O)oc2c1 (stereo unspecified) = active
Cc1ccc(Cn2c(C)nc3c(c2=O)c2nc4ccccc4nc2n3Cc2ccco2)cc1 = active
COc1ccc(C2CC(c3cccs3)=NN2c2ccc(F)cc2)cc1OC (stereo unspecified) = active
